assay: small-molecule microarray binders of probe aShh, primary screen, biochemical, biotinylated probe, 635/667 nm fluorescence (AID 1114); settings: higher = more signal;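 further: probe is biotin-labelled aShh protein from a stem cell growth factor screen; measures binding of labelled protein to compounds printed on the slide; score merges feature fluorescence at 667 nm with signal-to-noise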
reported_endpoint: composite z-score
Keep it simple and answer with nothing but the number.

Reported composite z-score, molecule CCCCN1CC=CC23O[C@@H]4/C=C\CCCOC(=O)C4[C@H]2C(=O)N(CCCCCCO)[C@@H]3C1=O (stereo not given in full) : ____
0.0639

Name the recorded composite z-score for COc1ccc(C(O)C2C=CC3C(=O)N(c4ccccc4)C(=O)C3N2Nc2ccccc2F)c2ccccc12 (stereo not given) .
0.425

Fill in: composite z-score of [N-]=[N+]=Nc1ccccc1C[C@@]1(C(=O)NCc2ccccc2)N=C(c2ccc(OCCCO)cc2)O[C@@H]1c1ccccc1 is ___
0.0326

// returns reported composite z-score for input COc1ccc(-c2cc3c(c(CCc4ccccc4)n2)[Si](C(C)C)(C(C)C)O[C@H]3c2ccccc2)cn1
-0.0192

Need composite z-score, item COC(=O)[C@]1(Cc2ccccc2CN=[N+]=[N-])N=C(c2ccc(OCCCO)cc2)O[C@@H]1c1ccccc1N=[N+]=[N-]
-0.018

For the molecule C[C@H]1C2[C@H](Cc3ccccc3)NC(=O)[C@]23C(=O)N[C@@H](Cc2ccccc2)C(=O)N2CCC[C@H]2C(=O)NC/C=C/CC/C=C/C3[C@@H]2O[C@]12C (stereo not given in full) , what composite z-score is on record?
-0.221

// query composite z-score value for entry CC(C)c1ccc(NN2C(C(O)C(C)c3ccccc3)C=CC3C(=O)N(c4ccccc4)C(=O)C32)cc1 (stereo not given)
0.252

What composite z-score value was documented for this molecule, C=CC[C@]12N=C(c3ccc(OCCCO)cc3)O[C@H]1c1ccccc1N(CCC)C2=O ?
0.187

What value of measured composite z-score is listed for CCCCN1CC=CC23O[C@@H]4C=CCCOC(=O)C4[C@H]2C(=O)N(CCO)[C@@H]3C1=O (stereo not given in full) ?
0.149

Quick one: composite z-score for COCCOC(=O)N1C(=O)[C@@]2(c3cc(C#CCC(C(=O)OC)C(=O)OC)ccc31)[C@H](C(N)=O)[C@H]1C(=O)O[C@H](c3ccccc3)[C@H](c3ccccc3)N1[C@@H]2c1ccccc1OCCO ?
-0.182

For the molecule shown here, [N-]=[N+]=Nc1ccccc1C[C@]1(C(N)=O)COC(c2ccc(OCCCO)cc2)=N1 , give the reported composite z-score.
0.486

For COc1ccc(CCNC(=O)[C@@]2(C)c3ccccc3C(=O)N(Cc3ccc(OC(F)(F)F)cc3)[C@H]2c2ccc(CO)cc2)cc1 , what is its reported composite z-score?
0.0181

Quick one: composite z-score of C=C(CC1([C@@H](NP(=O)(c2ccccc2)c2ccccc2)[C@H]2C[C@@H]2CCCC)CC1)c1cccc(OC)c1 ?
0.313

Name the recorded composite z-score for COC(=O)[C@@]1(Cc2ccc(F)cc2)[C@H]2c3cc(C(=O)N(C)C)n(Cc4ccsc4Br)c3C[C@H]2CN1C(=O)c1ccccc1 .
2.15

Fill blank: measured composite z-score of the molecule [N-]=[N+]=NCc1ccccc1[C@H]1OC(c2ccc(OCCCO)cc2)=N[C@@]1(Cc1ccccc1N=[N+]=[N-])C(=O)O is ____.
0.385
